molecular target: hCB2 (Homo sapiens, UniProt P34972); construct: expressed in transfected cells; host or cells: HEK Flp-in; test: Radioligand competition binding with [3H]-CP 55,940 on hCB2-expressing HEK membranes; conditions: 1 h; 10 μM compound; displacement of 0.5 nM [3H]-CP 55,940; read-out: CB2 binding extent at 10 μM (%) (±SEM)
Sequence (P34972 whole entry): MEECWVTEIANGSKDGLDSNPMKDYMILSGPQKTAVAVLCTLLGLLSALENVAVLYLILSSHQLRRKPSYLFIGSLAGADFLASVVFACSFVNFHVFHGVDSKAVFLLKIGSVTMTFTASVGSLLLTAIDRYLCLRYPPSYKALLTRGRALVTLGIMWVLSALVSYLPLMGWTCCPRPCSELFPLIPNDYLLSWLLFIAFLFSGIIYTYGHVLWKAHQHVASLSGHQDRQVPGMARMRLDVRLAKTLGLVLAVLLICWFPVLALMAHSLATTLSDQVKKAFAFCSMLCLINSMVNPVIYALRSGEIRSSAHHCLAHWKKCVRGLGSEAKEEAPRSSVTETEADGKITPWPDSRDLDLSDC
Met means recorded inhibition at 10 µM is 40% or above; Not met means it is below 40%.

I'd appreciate it if you could say whether CCOc1nc(NC2CCCC2)nc(N2CCNCC2)n1 [Compound 2] has inhibition at 10 µM at least equal to 40%. Not met

And then CCOc1nc(NC23CC4CC(CC(C4)C2)C3)nc(N2CCN(CCF)CC2)n1 [Compound 16] , what is it? Met

And then CCOc1nc(Cl)nc(NC2CCCC2)n1 [Compound 1] , what is it? Not met

And then CCOc1nc(NC23CC4CC(CC(C4)C2)C3)nc(N2CCN(CCCCCCN)CC2)n1 [Compound 12] , what is it? Met

And then CCOc1nc(NC23CC4CC(CC(C4)C2)C3)nc(N2CCNCC2)n1 [Compound 7] , what is it? Met

And then CCOc1nc(NC23CC4CC(CC(C4)C2)C3)nc(N2CCN(CCCCCCNC(=O)OC(C)(C)C)CC2)n1 [Compound 9] , what is it? Met

And then CCOc1nc(NC2CCCC2)nc(N2CCN(CCCCCCN)CC2)n1 [Compound 5] , what is it? Not met

And then CCOc1nc(NC2CCCC2)nc(N2CCN(CCOCCOCCN)CC2)n1 [Compound 6] , what is it? Not met

And then CCOc1nc(NC23CC4CC(CC(C4)C2)C3)nc(N2CCN(CCOCCOCCNC(=O)OC(C)(C)C)CC2)n1 [Compound 10] , what is it? Met

And then CCOc1nc(NC23CC4CC(CC(C4)C2)C3)nc(N2CCN(CCOCCOCCN)CC2)n1 [Compound 13] , what is it? Met

These entries and their values trace back to paper PMC6256112.
